test system: HepG2; assay: Antiproliferative activity against human HepG2 cells measured after 48 hrs by MTT assay; type: functional, cell-based; details: HepG2, 48 h
pIC50: −log10 of the molar value.
readoutType: pIC50

structureSmiles	readoutType	endpointValue
COc1cc(-c2nnc(SCC(=O)Nc3ccc(C)cc3)n2N)cc(OC)c1OC	pIC50	< 4.00
COc1cc(-c2nnc(SCC(=O)NCc3ccc(Cl)cc3)n2N)cc(OC)c1OC	pIC50	< 4.00
COc1cc(-c2nnc(SCC(=O)c3ccc(C)cc3)n2N)cc(OC)c1OC	pIC50	< 4.00
COc1cc(-c2nnc(SCC(=O)c3ccccc3)n2N)cc(OC)c1OC	pIC50	5.11
COc1cccc(NC(=O)CSc2nnc(-c3cc(OC)c(OC)c(OC)c3)n2N)c1	pIC50	< 4.00
